assay: Pharmacokinetics of compound I-1 in the dog by intravenous, oral gavage and oral capsule routes; assay type: in vivo, beagle dogs; conditions: male, beagle, dog, plasma, oral, 7 mg/kg, Group 3: PO Capsule 7 mg/kg; 4 h; Subject 2; read-out: Concentration at time point
measured-quantity: concentration at 4 h (ng/mL)

{"smiles-notation": "CC(C)(O)c1nc2ccccc2cc1N", "test-result": 736}

----------
test: Pharmacokinetics of compound I-1 in the dog by intravenous, oral gavage and oral capsule routes; assay type: in vivo, beagle dogs; details: male, beagle, dog, plasma, oral, 7 mg/kg, Group 3: PO Capsule 7 mg/kg; 12 h; Subject 3; read-out: Concentration at time point
measured-quantity: concentration at 12 h (ng/mL)

{"smiles-notation": "CC(C)(O)c1nc2ccccc2cc1N", "value-units": "ng/mL", "test-result": 167}

----------
Assay: Phase 1 clinical trial, multiple ascending dose (MAD) pharmacokinetics
Format: in vivo, human
Settings: human, in vivo, po, 350 mg, oral 350 mg BID; Day 1; read-out: Mean AUC0-12
Source text: PK data are presented below.

{"smiles-notation": "CC(C)(O)c1nc2ccccc2cc1N", "AUC(0-t)": "~2950 ng·h/mL"}

----------
assay: Pharmacokinetics of compound I-1 in the dog by intravenous, oral gavage and oral capsule routes; type: in vivo, beagle dogs; details: male, beagle, dog, plasma, po, 7.2 mg/kg, 100 mg Capsule, average dose 7.2 mg/kg; Subj1
measured-quantity: AUC(0-t) (ng·h/mL)

{"smiles-notation": "CC(C)(O)c1nc2ccccc2cc1N", "test-result": 7240}

----------
assay: Pharmacokinetics of compound I-1 in the dog by intravenous, oral gavage and oral capsule routes; assay type: in vivo, beagle dogs; settings: male, beagle, dog, plasma, po, 7.2 mg/kg, 100 mg Capsule, average dose 7.2 mg/kg; Subj1

{"smiles-notation": "CC(C)(O)c1nc2ccccc2cc1N", "Cmax": "1390 ng/mL"}

----------
test: Phase 1 clinical trial, single ascending dose (SAD) pharmacokinetics; format: in vivo, human; conditions: human, in vivo, po, 100 mg, healthy volunteers; oral single dose 100 mg

{"smiles-notation": "CC(C)(O)c1nc2ccccc2cc1N", "half-life": "3.52 h"}

----------
test: Pharmacokinetics of compound I-1 in the dog by intravenous, oral gavage and oral capsule routes; assay type: in vivo, beagle dogs; conditions: male, beagle, dog, plasma, po, 10 mg/kg, Oral Gavage 0.5% Methylcellulose 10 mg/kg; Subj2

{"smiles-notation": "CC(C)(O)c1nc2ccccc2cc1N", "half-life, h": 2.13}

----------
Assay: Phase 1 clinical trial, single ascending dose (SAD) pharmacokinetics
Type: in vivo, human
Conditions: human, in vivo, po, 1200 mg, healthy volunteers; oral single dose 1200 mg
Excerpt: Pharmacokinetic data are presented below.

{"compound": "CC(C)(O)c1nc2ccccc2cc1N [I-1]", "half-life / h": 7.69}

----------
Experiment: Pharmacokinetics of compound I-1 in the dog by intravenous, oral gavage and oral capsule routes
Format: in vivo, beagle dogs
Settings: male, beagle, dog, plasma, iv, 3 mg/kg, Group 1: IV 3 mg/kg; 4 h; Average; read-out: Concentration at time point
Procedure: A pharmacokinetic study was conducted to compare the bioavailability of capsule and suspension oral formulations vs. an intravenous formulations. The standard curve was prepared from 1 to 2,000 ng/mL. QC samples were prepared at 30, 30, and 750 ng/mL. […] The resulting supernatants were analyzed by LCMS. […] The I-1 100 mg capsules are manufactured as a non-sterile spray dried, granulated powder blend. […] The quantitative composition of the I-1 100 mg capsule is presented above in Table B. […]
measured-quantity: concentration at 4 h (ng/mL)

{"smiles-notation": "CC(C)(O)c1nc2ccccc2cc1N", "test-result": 250}

----------
assay: Pharmacokinetics of compound I-1 in the dog by intravenous, oral gavage and oral capsule routes; format: in vivo, beagle dogs; details: male, beagle, dog, plasma, po, 10 mg/kg, Group 2: PO Gavage 10 mg/kg; 8 h; Subject 3; read-out: Concentration at time point

{"molecule": "CC(C)(O)c1nc2ccccc2cc1N [I-1]", "value-units": "ng/mL", "concentration at 8 h": 108}

----------
assay: Pharmacokinetics of compound I-1 in the dog by intravenous, oral gavage and oral capsule routes; type: in vivo, beagle dogs; details: male, beagle, dog, plasma, iv, 3 mg/kg, Intravenous - 3 mg/kg; Average
measured-quantity: clearance

{"molecule": "CC(C)(O)c1nc2ccccc2cc1N [I-1]", "measured-quantity": "clearance", "test-result": "0.732 L/h/kg"}

----------
assay: Pharmacokinetics of compound I-1 in the dog by intravenous, oral gavage and oral capsule routes; assay type: in vivo, beagle dogs; settings: male, beagle, dog, plasma, iv, 3 mg/kg, Group 1: IV 3 mg/kg; 1 h; Subject 2; read-out: Concentration at time point

{"smiles-notation": "CC(C)(O)c1nc2ccccc2cc1N", "concentration at 1 h": "0.908 µg/mL"}

----------
test: Pharmacokinetics of compound I-1 in the dog by intravenous, oral gavage and oral capsule routes; type: in vivo, beagle dogs; conditions: male, beagle, dog, plasma, po, 10 mg/kg, Group 2: PO Gavage 10 mg/kg; 2 h; Subject 2; read-out: Concentration at time point
measured-quantity: concentration at 2 h (ng/mL)

{"smiles-notation": "CC(C)(O)c1nc2ccccc2cc1N", "test-result": 1470}

----------
test: Pharmacokinetic comparison of ADX-102 (reproxalap) and compound I-1 in rats; assay type: in vivo, Sprague-Dawley rats; settings: SD Rat; oral gavage 10 mg/kg; CMC/Tween
measured-quantity: AUC(0-t) (ng·h/mL)

{"molecule": "CC(C)(O)c1nc2ccc(Cl)cc2cc1N [ADX-102]", "measured-quantity": "AUC(0-t)", "test-result": 595}

----------
experiment: Pharmacokinetics of compound I-1 in the dog by intravenous, oral gavage and oral capsule routes; format: in vivo, beagle dogs; settings: male, beagle, dog, plasma, po, 10 mg/kg, Group 2: PO Gavage 10 mg/kg; 8 h; Average; read-out: Concentration at time point
measured-quantity: concentration at 8 h (ng/mL)

{"smiles-notation": "CC(C)(O)c1nc2ccccc2cc1N", "test-result": 157}

----------
test: Pharmacokinetics of compound I-1 in the dog by intravenous, oral gavage and oral capsule routes; format: in vivo, beagle dogs; conditions: male, beagle, dog, plasma, po, 10 mg/kg, Oral Gavage 0.5% Methylcellulose 10 mg/kg; Subj3

{"smiles-notation": "CC(C)(O)c1nc2ccccc2cc1N", "AUC(0-inf) / ng·h/mL": 7330}

----------
assay: Pharmacokinetics of compound I-1 in the dog by intravenous, oral gavage and oral capsule routes; type: in vivo, beagle dogs; conditions: male, beagle, dog, plasma, iv, 3 mg/kg, Group 1: IV 3 mg/kg; 2 h; Average; read-out: Concentration at time point
measured-quantity: concentration at 2 h (µg/mL)

{"smiles-notation": "CC(C)(O)c1nc2ccccc2cc1N", "value-units": "µg/mL", "test-result": 0.548}

----------
assay: Pharmacokinetics of compound I-1 in the dog by intravenous, oral gavage and oral capsule routes; format: in vivo, beagle dogs; conditions: male, beagle, dog, plasma, po, 7.2 mg/kg, 100 mg Capsule, average dose 7.2 mg/kg; Subj3

{"smiles-notation": "CC(C)(O)c1nc2ccccc2cc1N", "value-units": "ng·h/mL", "AUC(0-t)": 11500}

----------
assay: Pharmacokinetics of compound I-1 in the dog by intravenous, oral gavage and oral capsule routes; format: in vivo, beagle dogs; conditions: male, beagle, dog, plasma, iv, 3 mg/kg, Intravenous - 3 mg/kg; Average
measured-quantity: C0 (ng/mL)

{"smiles-notation": "CC(C)(O)c1nc2ccccc2cc1N", "test-result": 6720}

----------
assay: Pharmacokinetics of compound I-1 in the dog by intravenous, oral gavage and oral capsule routes; format: in vivo, beagle dogs; conditions: male, beagle, dog, plasma, po, 10 mg/kg, Group 2: PO Gavage 10 mg/kg; 1 h; Subject 1; read-out: Concentration at time point
measured-quantity: concentration at 1 h

{"smiles-notation": "CC(C)(O)c1nc2ccccc2cc1N", "measured-quantity": "concentration at 1 h", "test-result": "2970 ng/mL"}

----------
Test: Pharmacokinetics of compound I-1 in the dog by intravenous, oral gavage and oral capsule routes
Assay type: in vivo, beagle dogs
Details: male, beagle, dog, plasma, po, 10 mg/kg, Oral Gavage 0.5% Methylcellulose 10 mg/kg; Subj3
Experimental: A pharmacokinetic study was conducted to compare the bioavailability of capsule and suspension oral formulations vs. an intravenous formulations. The standard curve was prepared from 1 to 2,000 ng/mL. QC samples were prepared at 30, 30, and 750 ng/mL. […] The resulting supernatants were analyzed by LCMS. […] The I-1 100 mg capsules are manufactured as a non-sterile spray dried, granulated powder blend. […] The quantitative composition of the I-1 100 mg capsule is presented above in Table B. […]
measured-quantity: Cmax (ng/mL)

{"smiles-notation": "CC(C)(O)c1nc2ccccc2cc1N", "test-result": 2650}
